Sourced from patent US4117230A

system: aldose reductase (Bos taurus, UniProt P16116)
Construct: partially purified aldose reductose enzyme obtained from calf lens; from tissue; host or cells: calf lens
assay-info: inhibition of aldose reductase enzyme activity (procedure of S. Hayman et al., modified by K. Sestanj et al.)
Type: biochemical, calf
test-conditions: 10^-4 M; calf lens enzyme; read-out: Percent inhibition of aldose reductase enzyme activity
reported-property: inhibition at 100 µM (%)
Please give a number only; it is taken to be in %.

| compound | unit-symbol | inhibition at 100 µM |
| --- | --- | --- |
| O=C1NC(=O)C2(CCOc3ccccc32)N1 (stereo not drawn) | % | 73 |
| O=C1NC(=O)C2(CCSc3c(Cl)cccc32)N1 (stereo not drawn) | % | 60 |
| COc1ccc2c(c1)C1(CCC2)NC(=O)NC1=O (stereo not drawn) | % | 54 |

Provide inhibition at 100 µM value for the following compound: O=C1NC(=O)C2(CCCc3ccccc32)N1 (stereo not drawn) [Prep. C, reference compound]
72

Determine its reported inhibition at 100 µM: COc1ccc2c(c1)C1(CC2)NC(=O)NC1=O (stereo not drawn)
97

Find the measured inhibition at 100 µM of O=C1NC(=O)C2(CCOc3c(Cl)cccc32)N1 (stereo not drawn) and report it.
87

###

system: aldose reductase (Bos taurus, UniProt P16116)
Construct: partially purified aldose reductose enzyme obtained from calf lens; from tissue; host or cells: calf lens
assay-info: inhibition of aldose reductase enzyme activity (procedure of S. Hayman et al., modified by K. Sestanj et al.)
Assay type: biochemical, calf
test-conditions: 10^-7 M; calf lens enzyme; read-out: Percent inhibition of aldose reductase enzyme activity
reported-property: inhibition at 0.1 µM (%)
Could you give me the number in %? Just the number is fine.

Quickly give me recorded inhibition at 0.1 µM for O=C1NC(=O)C2(CCc3ccc(F)cc32)N1 (centres unmarked) [Ex. III]
-1

Write down inhibition at 0.1 µM measured for item O=C1NC(=O)C2(CC[S+]([O-])c3ccc(F)cc32)N1 (centres unmarked) [Ex. XXX]
16

Read off the recorded inhibition at 0.1 µM for COc1cccc2c1CCCC21NC(=O)NC1=O (centres unmarked) [Ex. XXVI]
0

Complete the entry with inhibition at 0.1 µM for O=C1NC(=O)C2(CCc3cc4c(cc32)OCO4)N1 (centres unmarked) [Ex. V]
3

###

Quick list: inhibition at 1 µM per entry.
system: aldose reductase (Bos taurus, UniProt P16116)
Construct: partially purified aldose reductose enzyme obtained from calf lens; from tissue; host or cells: calf lens
assay-info: inhibition of aldose reductase enzyme activity (procedure of S. Hayman et al., modified by K. Sestanj et al.)
Format: biochemical, calf
test-conditions: 10^-6 M; calf lens enzyme; read-out: Percent inhibition of aldose reductase enzyme activity
Description: […]
The reply should be a number in %, with the unit left off.

Recorded results for 4 compounds are shown here.
| compound | unit-symbol | inhibition at 1 µM |
| --- | --- | --- |
| COc1ccc2c(c1)C1(CCO2)NC(=O)NC1=O (centres unmarked) | % | 35 |
| COc1ccc2c(c1)CCC21NC(=O)NC1=O (centres unmarked) | % | 13 |
| COc1cc2c(cc1OC)C1(CCC2)NC(=O)NC1=O (centres unmarked) | % | 8 |
| O=C1NC(=O)C2(CCOc3cc(Cl)c(Cl)cc32)N1 (centres unmarked) | % | 91 |

Report inhibition at 1 µM, nothing else, for this compound: O=C1NC(=O)C2(CCSc3ccccc32)N1 (centres unmarked)
10

Supply recorded inhibition at 1 µM for O=C1NC(=O)C2(CCOc3ccc(Cl)cc32)N1 (centres unmarked) here.
77

Give reported inhibition at 1 µM value for O=C1NC(=O)C2(CCS(=O)(=O)c3ccccc32)N1 (centres unmarked)
31

###

Reported inhibition at 100 µM values follow for various molecules
system: aldose reductase (Bos taurus, UniProt P16116)
Construct: partially purified aldose reductose enzyme obtained from calf lens; from tissue; host or cells: calf lens
assay-info: inhibition of aldose reductase enzyme activity (procedure of S. Hayman et al., modified by K. Sestanj et al.)
Assay type: biochemical, calf
test-conditions: 10^-4 M; calf lens enzyme; read-out: Percent inhibition of aldose reductase enzyme activity
Give your result in % as a bare value.

Field: example entries. Status: answers known.
| molecule | reported-property | experimental-value |
| --- | --- | --- |
| O=C1NC(=O)C2(CCSc3ccccc32)N1 (stereo not drawn) | inhibition at 100 µM | 92 |
| O=C1NC(=O)C2(CCS(=O)(=O)c3ccc(F)cc32)N1 (stereo not drawn) | inhibition at 100 µM | 85 |
| O=C1NC(=O)C2(CCCc3ncccc32)N1 (stereo not drawn) | inhibition at 100 µM | 83 |
| O=C1NC(=O)C2(CCc3ccccc32)N1 (stereo not drawn) | inhibition at 100 µM | 73 |
| COc1ccc2c(c1)CCCC21NC(=O)NC1=O (stereo not drawn) | inhibition at 100 µM | 72 |

Please find the next molecule below.
Supply inhibition at 100 µM value. Item: O=C1NC(=O)C2(CCOc3ccc(Cl)cc32)N1 (stereo not drawn)
73

###

Test system: sorbitol accumulation in the sciatic nerve of streptozotocinized (i.e., diabetic) rats
assay-info: inhibition of sorbitol accumulation in the sciatic nerve of acutely streptozotocinized (diabetic) rats
Type: in vivo, rat
test-conditions: 0.75 mg./kg. orally at 4, 8 and 24 h after streptozotocin; measured at 27 h; vs untreated
The entries below are paired with their reported Percent inhibition of sorbitol accumulation in the sciatic nerve.
Answer format: value, then unit.

| compound | experimental-value |
| --- | --- |
| O=C1NC(=O)C2(CCOc3ccc(Cl)cc32)N1 (stereo not shown) [Ex. XXV] | 64% |

Hello, please tell me recorded Percent inhibition of sorbitol accumulation in the sciatic nerve for this one: O=C1NC(=O)C2(CCOc3c(Cl)cc(Cl)cc32)N1 (stereo not shown) [Ex. XXIV]
82%

Annotate the compound O=C1NC(=O)C2(CCSc3ccc(F)cc32)N1 (stereo not shown) [Ex. XII] with its measured Percent inhibition of sorbitol accumulation in the sciatic nerve.
13%

Provide one value: measured Percent inhibition of sorbitol accumulation in the sciatic nerve of O=C1NC(=O)C2(CCOc3ccc(F)cc32)N1 (stereo not shown) [Ex. XXII]
45%

###

Quick reference for inhibition at 100 µM among some molecules
system: aldose reductase (Bos taurus, UniProt P16116)
Construct: partially purified aldose reductose enzyme obtained from calf lens; from tissue; host or cells: calf lens
assay-info: inhibition of aldose reductase enzyme activity (procedure of S. Hayman et al., modified by K. Sestanj et al.)
Type: biochemical, calf
test-conditions: 10^-4 M; calf lens enzyme; read-out: Percent inhibition of aldose reductase enzyme activity
I only need the number, in %, no unit after it.

| molecule | unit-symbol | inhibition at 100 µM |
| --- | --- | --- |
| COc1cc2c(cc1OC)C1(CC2)NC(=O)NC1=O (centres unmarked) | % | 90 |

Report value: inhibition at 100 µM, system: aldose reductase (Bos taurus, UniProt P16116), molecule: O=C1NC(=O)C2(CCOc3c(Cl)cc(Cl)cc32)N1 (centres unmarked)
85

Give inhibition at 100 µM for this entry on aldose reductase (Bos taurus, UniProt P16116): O=C1NC(=O)C2(CCc3ccc(F)cc32)N1 (centres unmarked)
74

Name the recorded inhibition at 100 µM of COc1cc2c(cc1OC)C1(CCC2)NC(=O)NC1=O (centres unmarked) , assay system aldose reductase (Bos taurus, UniProt P16116).
82

Determine reported inhibition at 100 µM for O=C1NC(=O)C2(CCOc3ccc(F)cc32)N1 (centres unmarked) ; test system: aldose reductase (Bos taurus, UniProt P16116).
84

Give inhibition at 100 µM only, for COc1ccc2c(c1)C1(CCO2)NC(=O)NC1=O (centres unmarked) , using aldose reductase (Bos taurus, UniProt P16116) data.
100

State, for aldose reductase (Bos taurus, UniProt P16116), measured inhibition at 100 µM of the molecule listed here: O=C1NC(=O)C2(CCc3ccc(O)cc32)N1 (centres unmarked)
93

// output inhibition at 100 µM; input O=C1NC(=O)C2(CCOc3cc(Cl)c(Cl)cc32)N1 (centres unmarked) ; system aldose reductase (Bos taurus, UniProt P16116)
59

Tell me inhibition at 100 µM of COc1ccc2c(c1)C1(CCS2)NC(=O)NC1=O (centres unmarked) when tested on aldose reductase (Bos taurus, UniProt P16116).
76

Specify inhibition at 100 µM for COc1ccc2c(c1)CCC21NC(=O)NC1=O (centres unmarked) , system aldose reductase (Bos taurus, UniProt P16116).
82

Please report inhibition at 100 µM with aldose reductase (Bos taurus, UniProt P16116) for item O=C1NC(=O)C2(CCSc3ccc(F)cc32)N1 (centres unmarked) .
81

###

system: aldose reductase (Bos taurus)
Construct: partially purified aldose reductose enzyme obtained from calf lens; from tissue; host or cells: calf lens
assay-info: inhibition of aldose reductase enzyme activity (procedure of S. Hayman et al., modified by K. Sestanj et al.)
Format: biochemical, calf
test-conditions: 10^-5 M; calf lens enzyme; read-out: Percent inhibition of aldose reductase enzyme activity
Description: […]
reported-property: inhibition at 10 µM (%)
Reply numerically in %, unit not repeated.

Some molecules with recorded inhibition at 10 µM:
| molecule | inhibition at 10 µM / % |
| --- | --- |
| Cc1cc(C)c2c(c1)C1(CCO2)NC(=O)NC1=O (centres unmarked) | 84 |
| O=C1NC(=O)C2(CS(=O)(=O)c3ccccc32)N1 (centres unmarked) | 64 |
| COc1cccc2c1CCCC21NC(=O)NC1=O (centres unmarked) | 49 |
| O=C1NC(=O)C2(CCOc3ccc(Cl)cc32)N1 (centres unmarked) | 81 |
| COc1ccc2c(c1)C1(CC2)NC(=O)NC1=O (centres unmarked) | 61 |
| COc1ccc2c(c1)CCC21NC(=O)NC1=O (centres unmarked) | 60 |

Recall the reported inhibition at 10 µM of O=C1NC(=O)C2(CCCc3ccccc32)N1 (centres unmarked) [Prep. C, reference compound] when tested on aldose reductase (Bos taurus).
34

Fill in inhibition at 10 µM for O=C1NC(=O)C2(CCSc3ccc(F)cc32)N1 (centres unmarked) tested with aldose reductase (Bos taurus).
77

Lab note: record inhibition at 10 µM of O=C1NC(=O)C2(CCSc3ccccc32)N1 (centres unmarked) tested on aldose reductase (Bos taurus).
64

Look up aldose reductase (Bos taurus) data: inhibition at 10 µM of COc1cc2c(cc1OC)C1(CCC2)NC(=O)NC1=O (centres unmarked) , then report it.
26

Check aldose reductase (Bos taurus) data and give inhibition at 10 µM for O=C1NC(=O)C2(CCOc3ccc(F)cc32)N1 (centres unmarked) .
58
